B1: HDV Ribozyme (parent)
chain: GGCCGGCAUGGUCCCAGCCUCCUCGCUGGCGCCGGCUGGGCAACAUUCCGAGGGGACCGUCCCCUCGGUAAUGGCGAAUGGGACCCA

- Variants of: B1
- test_details: self-cleavage, relative activity (ratio to wild type); higher = more cleavage; co-transcriptional
Returns one of t or f; t when self-cleavage is >= 0.3.

1) GGCCGGCACGGUCCCAGCCUCCUCGAUGGCGCCGGCUGGGCAACAUUCCGAGGGGACCGUCCCCUCGGUAAUGGCGAAUGGGACCCA [U9C C26A]	t
2) GGCCGGCAUGGUCCCAGCCUCCUCGCUGGCGCCGGCUGGGCAACAUUCCGAGGGGACCAUCCCCUCGGUAAUGGCUAAUGGGACCCA [G59A G76U]	t
3) GGCCGGCAUGGUCCCAGCCUCCUCGCUGGCGCCCGCUGGGAAACAUUCCGAGGGGACCGUCCCCUCGGUAAUGGCGAAUGGGACCCA [G34C C41A]	f
4) GGCCGGCAUGGUCCCAGCCUCCUCACUGGCGCCGGCUGGGAAACAUUCCGAGGGGACCGUCCCCUCGGUAAUGGCGAAUGGGACCCA [G25A C41A]	f
5) GGCCGGCAUCGUCCCAGCCUCCUCGCUGGCGCCGGCUGGGCAACAUUCCGAGGGGACCGUCCCCUCGGUAAUGGCGAAUGGGACCUA [G10C C86U]	t
6) GGCCGGCAUGGUCCCAGCCUCCUCGCUGGCGCCGACUGGGCAACAUUCCGAGGGGACCGACCCCUCGGUAAUGGCGAAUGGGACCCA [G35A U60A]	t
7) GGCCGGCAUGGUCCCAGCCUCCUCGCUGACGCCGGCUGGGCAACAUUCCGAGGGGACCGUCCCCUCGGUCAUGGCGAAUGGGACCCA [G29A A70C]	f
8) GGCCGGCAUGGUACCAGCCUCCUCGCUGGCGCCGGCUGGGCAACAUUCCGAGGGCACCGUCCCCUCGGUAAUGGCGAAUGGGACCCA [C13A G55C]	f
9) GGCCGGCAUGGUCCCAGCCUCCUCGCUGGCGCCCGCUGGGCAACAUUCCGAGGGGACCGUCUCCUCGGUAAUGGCGAAUGGGACCCA [G34C C62U]	f
10) GGCCGGCAUGGUCCCAGCCUCCUCGCUGGCGCCGGCAGGGCAACAUUCCGAGGGGACCGUCCCCUCGGUAAUGGCGAAUGGGACGCA [U37A C85G]	f
11) GGCCGGCAUGGUCCCAGCCUCCUUGAUGGCGCCGGCUGGGCAACAUUCCGAGGGGACCGUCCCCUCGGUAAUGGCGAAUGGGACCCA [C24U C26A]	t
12) GGCCGGGAUGGUCCCAGCCUCCUCGCUGGCGCCGGCUGGGCAAGAUUCCGAGGGGACCGUCCCCUCGGUAAUGGCGAAUGGGACCCA [C7G C44G]	f
13) GGCCGGCAUGGUCCCAGCCUCCUCGCUGGCGCCGGCUGGGUAACAUUCCGAGGGGACCGUCCCCUAGGUAAUGGCGAAUGGGACCCA [C41U C66A]	t
14) GGCCGGCAUGGUCCCAGCCCCCUCGCUGGCGCCGGCUGGGCAACAUUCCGAGGGGACCGUCCCCUCGGUAAUAGCGAAUGGGACCCA [U20C G73A]	f
15) GGCCGGCAUGGUCCCAGCCUCCUCGCUGGCGCCGGCUGGGCAACAUCCCGAGGGGACCGUCCCCUCGGUAAUGGCGAAUGAGACCCA [U47C G81A]	t
16) GGCCGGCUUGGUCCCAGCCUCCUCGCUGGCGCCGGCUGGGCAACAUUACGAGGGGACCGUCCCCUCGGUAAUGGCGAAUGGGACCCA [A8U C48A]	t
